Test system: Human recombinant GST-PI3K
Test: PI3K induced-lipid phosphorylation, neomycin-SPA scintillation proximity assay
Format: biochemical
Conditions: Human recombinant GST-PI3K, SPA
pIC50: −log10 of the molar value.
readout-type: pIC50

Below: 4 molecules and their reported pIC50.
Output reported pIC50 of the molecule COc1ccc(CC2CCSCC2)c(Nc2nc3ccccc3nc2NS(=O)(=O)c2ccc(CN(C)C)cc2)c1 [Example 88] on Human recombinant GST-PI3K.
7.46

Param request: pIC50 | system Human recombinant GST-PI3K | item COc1ccc(CC2CCOCC2)c(Nc2nc3ccccc3nc2NS(C)(=O)=O)c1 [Example 8]
6.89

Quote Human recombinant GST-PI3K pIC50 for entry COc1ccc(CC(O)CO)c(Nc2nc3ccccc3nc2NS(=O)(=O)c2cn(C)cn2)c1 (centres unmarked) [Example 77] .
6.92

Please tell me the measured pIC50 for COc1ccc(CCCO)c(Nc2nc3ccccc3nc2NS(=O)(=O)c2cccc(NC(=O)CN(C)C)c2)c1 [Example 78] ; system: Human recombinant GST-PI3K.
7.52

A = COc1ccc(CCCO)c(Nc2nc3ccccc3nc2NS(=O)(=O)c2cn(C)cn2)c1 [Example 28]
B = COc1ccc(CCO)c(Nc2nc3ccccc3nc2NS(C)(=O)=O)c1 [Example 37]
C = COc1ccc(CCS(C)(=O)=O)c(Nc2nc3ccccc3nc2NS(=O)(=O)c2c(C)noc2C)c1 [Example 54]
D = COc1cc(CN(C)C)cc(Nc2nc3ccccc3nc2NS(=O)(=O)c2cn(C)cn2)c1 [Example 95]
Sort (4 molecules) by pIC50: min first. State the ranking by listing the labels in the requested order.
D, C, B, A

###

Assay: Ex-vivo IgM-induced Akt phosphorylation in mouse after oral administration
Details: male, C57Bl/6, blood
readout-type: Tmax (min)
Please respond with the number in min and leave the unit unwritten.

Answer with the recorded Tmax of COc1ccc(CN2CCN(C)CC2)c(Nc2nc3ccccc3nc2NS(=O)(=O)c2cccnc2)c1 only.
15

###

Tested on: Human recombinant GST-PI3K
Experiment: PI3K induced-lipid phosphorylation, neomycin-SPA scintillation proximity assay
Format: biochemical
Settings: Human recombinant GST-PI3K, SPA
Text: The efficacy of compounds of the invention in inhibiting the PI3K induced-lipid phosphorylation may be tested in the following binding assay. The assay combines the scintillation proximity assay technology (SPA, Amersham) with the capacity of neomycin (a polycationic antibiotic) to bind phospholipids with high affinity and specificity. The Scintillation Proximity Assay is based on the properties of weakly emitting isotopes (such as ^3H, ^125I, ^33P). […]
pIC50: −log10 of the molar value.
readout-type: pIC50

Tell me its pIC50 given COc1ccc(CCCO)c(Nc2nc3ccccc3nc2NS(=O)(=O)c2cn(C)c(CO)n2)c1 as the entry.
7.08

Specify pIC50 for COc1ccc(CCCS(C)(=O)=O)c(Nc2nc3ccccc3nc2NS(=O)(=O)c2cn(C)cn2)c1 and stop.
7.30

Tell me measured pIC50 for CCCS(=O)(=O)Nc1nc2ccccc2nc1Nc1cc(OC)ccc1CCCO please.
7.31

Please supply the value of reported pIC50 for the item COc1ccc(CCO)c(Nc2nc3ccccc3nc2NS(=O)(=O)c2ccc(C)[n+]([O-])c2)c1
6.97

Return reported pIC50. Input compound: COc1ccc(CCS(C)(=O)=O)c(Nc2nc3ccccc3nc2NS(=O)(=O)C(C)C)c1
6.80

Return pIC50 (reported value) for this compound: COc1ccc(CC2CCOCC2)c(Nc2nc3ccccc3nc2NS(=O)(=O)c2ccc(F)cc2)c1
6.82

A = COc1ccc(CCS(C)(=O)=O)c(Nc2nc3ccccc3nc2NS(=O)(=O)CCCSC)c1
B = COc1ccc(CCCO)c(Nc2nc3ccccc3nc2NS(=O)(=O)c2cccc(NC(=O)CO)c2)c1
Looking at A and B , which one comes out lower in pIC50 terms? Respond with the label that goes with your answer.
A
(A: 6.85, B: 7.92)
